From: the supplement of paper PMC4466140

studyTarget: CaAbp1-D1
assayText: SPOT peptide array binding signal intensity (averaged, normalized) (arbitrary units (background-subtracted, floor 0; scale differs between SH3 domains)); higher = stronger binding of the SH3 domain to the peptide
measuredParameter: SPOT peptide array binding signal intensity

INSERT INTO assay_data (binder, relationqualifier, endpointresult) VALUES
  ('QPWTDQFEKLEKEVS', '≤', 0),
  ('RKRRTHLRLPLIRSN', '=', 243),
  ('GKFIPSRPAPKPPSS', '=', 922),
  ('TKIRRRPQQPLTDFT', '=', 276),
  ('FTLPPPPPPPGLDEL', '≤', 0);
